Values compiled from patent US6878713B2.

system: Fluoroquinolone Sensitive Strains; assay: In-vitro antimicrobial test (MIC, two-fold serial agar dilution, NCCLS), Table 17; assay type: cell-based; conditions: Staphylococcus aureus, ATCC 25923 / MSSA, MSSA ATCC 25923
Sorting guide: entries reporting MIC beneath 0.05 µg/mL go in the yes (1) pile, the rest go in the no (0) pile.

Use the examples below as a reference point.
> print(dat)
                                   compound  assigned.class
1  COc1c(N2CCC(N)C(C)(C)C2)c(F)cc2c(=O)c(C(=O)O)cn(C3CC3)c12 (racemic) [Compound 17]          no (0)
2  Cc1c(N2CC[C@@H](O)[C@H](C)C2)c(F)cc2c(=O)c(C(=O)O)cn(C3CC3)c12 (relative stereo) [Compound 94]         yes (1)
3  COc1c(N2CC(C)C(O)C(C)C2)c(F)cc2c(=O)c(C(=O)O)cn(C3CC3)c12 (centres unmarked) [Compound 145]         yes (1)

Problem: For Cc1c(N2CCC(O)C(C)(C)C2)c(F)cc2c(=O)c(C(=O)O)cn(C3CC3)c12 (racemic) [Compound 95] , is the recorded MIC below the cut-off of 0.05 µg/mL?
Solution: yes (1)

Problem: Determine whether this compound shows MIC lower than 0.05 µg/mL (ties excluded): C[C@H]1COc2c(N3CCN(C)CC3)c(F)cc3c(=O)c(C(=O)O)cn1c23 [S-(−)-levofloxacin, reference compound]
Solution: no (0)

Problem: # strict comparison: is reported MIC < 0.05 µg/mL? input = CCc1c(N2CC[C@H](O)[C@H](C)C2)c(F)cc2c(=O)c(C(=O)O)cn(C3CC3)c12 (relative stereo) [Compound 120]
Solution: no (0)

Problem: I wonder whether Cc1c(N2CC[C@@H](N)[C@H](C)C2)c(F)cc2c(=O)c(C(=O)O)cn(C3CC3)c12 (single isomer, unassigned) [Compound 97] has MIC below 0.05 µg/mL. Can you tell?
Solution: yes (1)

* * *

observed property: melting point

Completed entries (count: 5):
> print(dat)
                                   compound  reported.result
1  COc1c(N2CC(C)C(N)C(C)C2)c(F)cc2c(=O)c(C(=O)O)cn(C3CC3)c12 (stereo not shown) [Example 34]    200 to 204 °C
2  COc1c(N2CCC(N)C(C)C2)c(F)cc2c(=O)c(C(=O)O)cn(C3CC3)c12 (stereo not shown)    238 to 240 °C
3  CCNC1CCN(c2c(F)cc3c(=O)c(C(=O)O)cn(C4CC4)c3c2OC)CC1(C)C (stereo not shown)    230 to 232 °C
4  CNC1C(C)CN(c2c(F)cc3c(=O)c(C(=O)O)cn(C4CC4)c3c2OC)CC1C (stereo not shown)    268 to 272 °C
5  COc1c(N2CCC(NC3CC3)C(C)C2)c(F)cc2c(=O)c(C(=O)O)cn(C3CC3)c12 (stereo not shown)    182 to 184 °C

Problem: GET /values?readout=melting point&item= CCNC1C(C)CN(c2c(F)cc3c(=O)c(C(=O)O)cn(C4CC4)c3c2OC)CC1C (stereo not shown) [Example 38]
Solution: 250 to 252 °C

Problem: For CCc1c(N2CCC(N)CC2)c(F)cc2c(=O)c(C(=O)O)cn(C3CC3)c12 , what is its reported melting point?
Solution: 248 to 249 °C

Problem: Quick one: melting point for COc1c(N2CC(C)C(N)C(C)C2)c(F)cc2c(=O)c(C(=O)O)cn(C3CC3)c12 (stereo not shown) [Example 33] ?
Solution: 238 to 240 °C

Problem: Report melting point for CNC1CCN(c2c(F)cc3c(=O)c(C(=O)O)cn(C4CC4)c3c2OC)CC1C (stereo not shown) please.
Solution: 240 °C (dec.)

Problem: Can you share its melting point? I mean this compound: CNC1CCN(c2c(F)c(N)c3c(=O)c(C(=O)O)cn(C4CC4)c3c2OC)CC1(C)C (stereo not shown)
Solution: 250 °C (dec.)
